protocol: ABZ saturated solubility in the selected SNEDDS pre-concentrate and in water
Assay type: physicochemical
experimental context: SNEDDS preconcentrate 5% oleic acid, 65% tween 20, 30% PEG; 30 °C, 72 h
recorded metric: solubility at 72 h (µg/mL)
Provide the reading as a plain figure in µg/mL.

[ask] Find the recorded solubility at 72 h belonging to CCCSc1ccc2nc(NC(=O)OC)[nH]c2c1 [ABZ, Albendazolum] and report it.
[reply] 125
